Biological target: Xanthine dehydrogenase/oxidase (Bos taurus)
Assay: Inhibition of bovine Xanthine oxidase assessed as decrease in uric acid production preincubated […] for 5 mins by spectrophotometry
reported_endpoint: IC50 (µM)

Use the examples below as a reference point.
{"columns": ["compound", "reported_endpoint", "unit_of_measurement", "readout_number"],
 "data": [
  ["COc1cc(C2CC(c3cccc4ccccc34)=NN2C(C)=O)cc(OC)c1OC (configuration not stated)", "IC50", "µM", 49.5],
  ["CC(=O)N1N=C(c2ccc(Br)cc2)CC1c1ccccc1 (configuration not stated)", "IC50", "µM", 71.3],
  ["CC(=O)N1N=C(c2ccco2)CC1c1ccncc1 (configuration not stated)", "IC50", "µM", 5.3]
]}

A. CC(=O)N1N=C(c2ccco2)CC1c1ccc(Cl)cc1 (configuration not stated)
B. CC(=O)N1N=C(c2cccc3ccccc23)CC1c1ccc([N+](=O)[O-])cc1 (configuration not stated)
Hey, which is lower on measured IC50, A or B ? Use the label to indicate which entry you chose.
A
(A: 15.2 µM, B: 32.2 µM)

###

Target: Xanthine dehydrogenase/oxidase (Bos taurus, UniProt P80457)
Sequence (P80457 whole entry): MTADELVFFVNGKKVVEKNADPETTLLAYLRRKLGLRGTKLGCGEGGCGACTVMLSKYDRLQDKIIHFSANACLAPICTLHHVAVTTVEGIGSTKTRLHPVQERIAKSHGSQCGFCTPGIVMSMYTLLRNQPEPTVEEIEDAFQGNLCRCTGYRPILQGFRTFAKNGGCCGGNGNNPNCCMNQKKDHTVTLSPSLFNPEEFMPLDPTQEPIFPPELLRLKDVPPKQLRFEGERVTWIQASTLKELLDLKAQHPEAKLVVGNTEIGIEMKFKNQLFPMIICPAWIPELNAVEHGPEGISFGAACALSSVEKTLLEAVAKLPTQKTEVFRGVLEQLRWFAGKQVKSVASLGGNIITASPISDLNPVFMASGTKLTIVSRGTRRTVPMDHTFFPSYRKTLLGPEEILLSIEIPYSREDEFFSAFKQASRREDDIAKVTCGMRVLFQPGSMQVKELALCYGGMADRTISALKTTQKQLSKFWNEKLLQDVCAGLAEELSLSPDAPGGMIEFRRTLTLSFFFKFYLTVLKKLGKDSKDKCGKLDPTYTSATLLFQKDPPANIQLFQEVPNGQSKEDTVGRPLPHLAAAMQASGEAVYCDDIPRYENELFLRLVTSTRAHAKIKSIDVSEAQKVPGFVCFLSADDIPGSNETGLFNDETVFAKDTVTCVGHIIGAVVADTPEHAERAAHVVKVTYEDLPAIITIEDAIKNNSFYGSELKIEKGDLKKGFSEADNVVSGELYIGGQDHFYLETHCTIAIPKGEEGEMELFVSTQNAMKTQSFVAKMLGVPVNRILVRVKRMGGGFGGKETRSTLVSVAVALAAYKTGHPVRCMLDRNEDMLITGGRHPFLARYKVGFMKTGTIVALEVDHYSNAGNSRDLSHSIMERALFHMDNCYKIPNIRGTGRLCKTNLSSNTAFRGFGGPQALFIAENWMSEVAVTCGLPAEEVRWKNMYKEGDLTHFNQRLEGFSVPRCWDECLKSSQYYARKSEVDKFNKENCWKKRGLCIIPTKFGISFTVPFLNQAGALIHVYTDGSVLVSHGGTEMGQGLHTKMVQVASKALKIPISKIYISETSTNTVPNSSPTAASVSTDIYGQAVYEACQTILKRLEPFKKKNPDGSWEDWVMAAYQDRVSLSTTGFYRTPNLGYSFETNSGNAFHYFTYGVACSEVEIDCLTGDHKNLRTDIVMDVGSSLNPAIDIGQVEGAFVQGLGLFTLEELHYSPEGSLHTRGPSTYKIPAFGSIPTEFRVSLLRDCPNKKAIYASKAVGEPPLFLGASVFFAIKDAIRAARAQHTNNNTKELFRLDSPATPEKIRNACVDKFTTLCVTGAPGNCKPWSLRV
Assay: Inhibition of bovine Xanthine oxidase assessed as decrease in uric acid production preincubated […] for 5 mins by spectrophotometry
pIC50: −log10 of the molar value.
reported_endpoint: pIC50

Use the examples below as a reference point.
{"columns": ["compound", "pIC50"],
 "data": [
  ["CC(=O)N1N=C(c2ccccc2)CC1c1ccc2c(c1)OCO2 (stereo unspecified)", 4.15],
  ["CC(=O)N1N=C(c2ccco2)CC1c1ccccc1 (stereo unspecified)", 4.58],
  ["CC(=O)N1N=C(c2ccccc2)CC1c1cccc(Cl)c1Cl (stereo unspecified)", 4.26],
  ["CC(=O)N1N=C(c2ccco2)CC1c1cccc(O)c1 (stereo unspecified)", 4.57],
  ["COc1ccc(C2CC(c3cccc4ccccc34)=NN2C(C)=O)cc1 (stereo unspecified)", 4.36],
  ["CC(=O)N1N=C(c2ccco2)CC1c1ccc(Br)cc1 (stereo unspecified)", 4.75],
  ["COc1ccc(C2CC(c3ccc(Br)cc3)=NN2C(C)=O)cc1OC (stereo unspecified)", 4.19],
  ["COc1cc(OC)c(C2CC(c3cccc4ccccc34)=NN2C(C)=O)cc1OC (stereo unspecified)", 4.34]
]}

1. COc1ccc(OC)c(C2CC(c3ccco3)=NN2C(C)=O)c1 (stereo unspecified)
2. CC(=O)N1N=C(c2ccco2)CC1c1ccc([N+](=O)[O-])cc1 (stereo unspecified)
3. COc1cc(C2CC(c3ccccc3)=NN2C(C)=O)cc(OC)c1OC (stereo unspecified)
4. COc1ccc(C2CC(c3cccc4ccccc34)=NN2C(C)=O)cc1OC (stereo unspecified)
Would you mind ranking these compounds by ascending pIC50? Reply: labels, ordered per the request.
3, 4, 1, 2

a. CC(=O)N1N=C(c2ccco2)CC1c1cccc([N+](=O)[O-])c1 (stereo unspecified)
b. COc1cc(C2CC(c3ccco3)=NN2C(C)=O)cc(OC)c1OC (stereo unspecified)
c. CC(=O)N1N=C(c2ccc(Br)cc2)CC1c1ccc2c(c1)OCO2 (stereo unspecified)
Would you mind ranking these compounds by ascending pIC50? Reply: labels, ordered per the request.
c, b, a

A. CC(=O)N1N=C(c2ccco2)CC1c1cccc(Cl)c1Cl (stereo unspecified)
B. COc1ccc(C2CC(c3ccccc3)=NN2C(C)=O)cc1 (stereo unspecified)
C. CC(=O)N1N=C(c2cccc3ccccc23)CC1c1cccc(Br)c1 (stereo unspecified)
Would you mind ranking these compounds by ascending pIC50? Reply: labels, ordered per the request.
B, C, A
(B: 4.12, C: 4.41, A: 4.83)

###

Biological target: Xanthine dehydrogenase/oxidase (Bos taurus, UniProt P80457)
Assay: Inhibition of bovine Xanthine oxidase assessed as decrease in uric acid production preincubated […] for 5 mins by spectrophotometry
reported_endpoint: IC50 (µM)

Use the examples below as a reference point.
{"columns": ["compound", "readout_number"],
 "data": [
  ["CC(=O)N1N=C(c2ccco2)CC1c1ccc2c(c1)OCO2 (stereo not drawn)", 28.1],
  ["CC(=O)N1N=C(c2cccc([N+](=O)[O-])c2)CC1c1cccc(Cl)c1Cl (stereo not drawn)", 58],
  ["CC(=O)N1N=C(c2cccc3ccccc23)CC1c1ccccc1[N+](=O)[O-] (stereo not drawn)", 37.2],
  ["CC(=O)N1N=C(c2ccc(Br)cc2)CC1c1cccc(Cl)c1Cl (stereo not drawn)", 51.7],
  ["CC(=O)N1N=C(c2cccc3ccccc23)CC1c1ccc2c(c1)OCO2 (stereo not drawn)", 47]
]}

1. CC(=O)N1N=C(c2cccc([N+](=O)[O-])c2)CC1c1ccccc1 (stereo not drawn)
2. CC(=O)N1N=C(c2ccco2)CC1c1ccccc1[N+](=O)[O-] (stereo not drawn)
Hey, which is lower on measured IC50, 1 or 2 ? Use the label to indicate which entry you chose.
2

a. CC(=O)N1N=C(c2cccc([N+](=O)[O-])c2)CC1c1ccc2c(c1)OCO2 (stereo not drawn)
b. COc1cc(C2CC(c3cccc4ccccc34)=NN2C(C)=O)ccc1O (stereo not drawn)
c. COc1cc(OC)c(C2CC(c3ccco3)=NN2C(C)=O)cc1OC (stereo not drawn)
Would you mind ranking these compounds by ascending IC50? Reply: labels, ordered per the request.
c, b, a
(c: 30.2 µM, b: 45.7 µM, a: 76.1 µM)

P. COc1cc(C2CC(c3ccc(Br)cc3)=NN2C(C)=O)cc(OC)c1OC (stereo not drawn)
Q. CC(=O)N1N=C(c2cccc3ccccc23)CC1c1cccc(Cl)c1Cl (stereo not drawn)
Identify the entry with the larger IC50. Options: P and Q Use the label to indicate which entry you chose.
P
(P: 74.9 µM, Q: 34.2 µM)

1. COc1ccc(C2CC(c3cccc([N+](=O)[O-])c3)=NN2C(C)=O)cc1OC (stereo not drawn)
2. COc1ccc(C2CC(c3ccco3)=NN2C(C)=O)cc1OC (stereo not drawn)
Hey, which is lower on measured IC50, 1 or 2 ? Use the label to indicate which entry you chose.
2

P. CC(=O)N1N=C(c2ccccc2)CC1c1ccccc1 (stereo not drawn)
Q. CC(=O)N1N=C(c2ccco2)CC1c1ccc2ccccc2c1 (stereo not drawn)
R. CC(=O)N1N=C(c2cccc3ccccc23)CC1c1cccc([N+](=O)[O-])c1 (stereo not drawn)
Arrange the 3 compounds from largest to smallest IC50. Reply: labels, ordered per the request.
Q, P, R
(Q: 91.4 µM, P: 61.4 µM, R: 36.4 µM)

1. CC(=O)N1N=C(c2ccccc2)CC1c1ccc(N(C)C)cc1 (stereo not drawn)
2. COc1ccc(OC)c(C2CC(c3cccc4ccccc34)=NN2C(C)=O)c1 (stereo not drawn)
3. COc1ccc(C2CC(c3ccco3)=NN2C(C)=O)cc1 (stereo not drawn)
Would you mind ranking these compounds by ascending IC50? Reply: labels, ordered per the request.
3, 2, 1

I. COc1ccc(C2CC(c3ccccc3)=NN2C(C)=O)cc1OC (stereo not drawn)
II. CC(=O)N1N=C(c2cccc3ccccc23)CC1c1ccccc1 (stereo not drawn)
Identify the entry with the larger IC50. Options: I and II Use the label to indicate which entry you chose.
I

A. COc1ccc(C2CC(c3ccc(Br)cc3)=NN2C(C)=O)cc1 (stereo not drawn)
B. COc1cc(C2CC(c3ccco3)=NN2C(C)=O)ccc1O (stereo not drawn)
Identify the entry with the larger IC50. Options: A and B Use the label to indicate which entry you chose.
A
(A: 66.5 µM, B: 26.8 µM)

###

Target: Xanthine dehydrogenase/oxidase (Bos taurus)
Test: Inhibition of bovine Xanthine oxidase assessed as decrease in uric acid production preincubated […] for 5 mins by spectrophotometry
reported_endpoint: IC50 (µM)

{"columns": ["molecule", "unit_of_measurement", "IC50"],
 "data": [
  ["COc1ccc(C2CC(c3cccc([N+](=O)[O-])c3)=NN2C(C)=O)cc1 (centres undefined)", "µM", 73.3],
  ["COc1cc(C2CC(c3ccccc3)=NN2C(C)=O)ccc1O (centres undefined)", "µM", 81.2]
]}
